protocol.summary: Hygroscopicity by Dynamic Vapor Sorption (DVS)
Format: physicochemical
study.conditions: based on water vapour uptake at 25° C./80% RH
observed.property: classification of hygroscopic behaviour

These recorded examples may help you get a feel for the data.
compound	result
CC(=O)O.NC(=NC(=O)c1nc(Cl)c(N)nc1N)NCc1ccccc1	non hygroscopic
CC(O)C(=O)O.NC(=NCc1ccccc1)NC(=O)c1nc(Cl)c(N)nc1N	slightly hygroscopic
N=C(NCc1ccccc1)NC(=O)c1nc(Cl)c(N)nc1N.O=C(O)c1ccccc1 [BNZ1]	non hygroscopic
Cc1ccc(S(=O)(=O)O)cc1.NC(=NC(=O)c1nc(Cl)c(N)nc1N)NCc1ccccc1	slightly hygroscopic
N=C(NCc1ccccc1)NC(=O)c1nc(Cl)c(N)nc1N.O=C(O)c1ccccc1 [BNZ2]	slightly hygroscopic
NC(=NC(=O)c1nc(Cl)c(N)nc1N)NCc1ccccc1.O=P(O)(O)O	slightly hygroscopic

Continue with the compound presented below.
compound `NC(=NC(=O)c1nc(Cl)c(N)nc1N)NCc1ccccc1.O=[N+]([O-])O` , classification of hygroscopic behaviour observed: slightly hygroscopic
